# Test Name: Cmax in rat at 5 mg/kg, po
# Format: ADME, organism-based
# Set-up: dose 5 mg/kg, route oral
# Condition Summary: in vivo
Consider the following compounds; for each one, report its Cmax.
Numbers only, in ng/mL.

In the examples that follow, each entry is paired with its recorded Cmax.
- Molecule Smiles: "COc1cc(CN2CCOCC2)ccc1-c1nc2c(N[C@H]3[C@@H](C(N)=O)[C@@H]4C=C[C@H]3C4)c(Cl)cnc2[nH]1"
  Endpoint Value: 317
- Molecule Smiles: "COc1cc(N2CCC(N3CCOCC3)CC2)ccc1-c1nc2c(N[C@H]3[C@@H](C(N)=O)[C@@H]4C=C[C@H]3C4)c(Cl)cnc2[nH]1"
  Endpoint Value: 158
- Molecule Smiles: "COc1cc(N2CCOCC2)ccc1-c1nc2c(N[C@H]3[C@@H](C(N)=O)[C@@H]4C=C[C@H]3C4)c(Cl)cnc2[nH]1"
  Endpoint Value: 429

Proceed to the following item.
Give the reported value of Cmax for this record: COc1cc(N2CCN(C)CC2)ccc1-c1nc2c(N[C@H]3[C@@H](C(N)=O)[C@@H]4C=C[C@H]3C4)c(Cl)cnc2[nH]1 26
